B1: SPDEF (parent)
chain: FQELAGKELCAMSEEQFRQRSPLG

# Variants of: B1
# PROCEDURE_TEXT: protein stability index of a GFP-peptide fusion (GPS, HEK-293T) (PSI 1-6); higher = more stable;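 note: lentivirally expressed fusions sorted by FACS into six bins by GFP to DsRed ratio, PSI derived from sequencing read proportions per bin multiplied by bin number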
# MEASUREMENT_SETUP: c terminus: a fixed tail appended
Recorded protein stability index by entry

[
  {
    "VARIANT_ANNOTATION": "F17Y",
    "protein stability index": 2.93
  },
  {
    "VARIANT_ANNOTATION": "P22D",
    "protein stability index": 2.62
  },
  {
    "VARIANT_ANNOTATION": "Q2T",
    "protein stability index": 1.94
  },
  {
    "VARIANT_ANNOTATION": "L9T",
    "protein stability index": 3.69
  },
  {
    "VARIANT_ANNOTATION": "P22N",
    "protein stability index": 2.59
  },
  {
    "VARIANT_ANNOTATION": "K7L",
    "protein stability index": 2.3
  },
  {
    "VARIANT_ANNOTATION": "M12P",
    "protein stability index": 2.38
  },
  {
    "VARIANT_ANNOTATION": "G24L",
    "protein stability index": 2.67
  }
]
